Target: p38α (Homo sapiens, UniProt Q16539)
Sequence (Q16539 whole entry): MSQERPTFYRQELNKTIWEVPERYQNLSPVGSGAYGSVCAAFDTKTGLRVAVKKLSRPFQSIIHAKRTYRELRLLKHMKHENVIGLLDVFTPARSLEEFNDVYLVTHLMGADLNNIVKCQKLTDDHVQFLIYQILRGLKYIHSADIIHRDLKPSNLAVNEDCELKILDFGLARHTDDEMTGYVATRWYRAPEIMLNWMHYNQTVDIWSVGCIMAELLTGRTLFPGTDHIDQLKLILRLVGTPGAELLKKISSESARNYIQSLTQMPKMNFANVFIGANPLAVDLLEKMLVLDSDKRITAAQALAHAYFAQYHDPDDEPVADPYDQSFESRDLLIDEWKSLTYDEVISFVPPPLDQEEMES
Assay: Kinase functional assay (mobility shift), p38α
Type: biochemical
Details: 10 µM compound, Table S4; read-out: p38α (% Inhib.)
Endpoint: inhibition at 10 µM (%)

>>> quantitative_readout("Nc1ccc(-c2nc3cc(Cl)ccc3c(=O)[nH]2)cc1")
45
>>> quantitative_readout("CCN(CC)c1ccc(-c2nc3ccccc3c(=O)[nH]2)cc1")
20
>>> quantitative_readout("O=c1[nH]c(-c2ccc3[nH]ncc3c2)nc2ccccc12")
3
>>> quantitative_readout("O=c1[nH]c(-c2ccc(N3CCCCC3)cc2)nc2ccccc12")
3

---

Target: GSK3β (Homo sapiens, UniProt P49841)
Sequence (P49841 whole entry, species assumed): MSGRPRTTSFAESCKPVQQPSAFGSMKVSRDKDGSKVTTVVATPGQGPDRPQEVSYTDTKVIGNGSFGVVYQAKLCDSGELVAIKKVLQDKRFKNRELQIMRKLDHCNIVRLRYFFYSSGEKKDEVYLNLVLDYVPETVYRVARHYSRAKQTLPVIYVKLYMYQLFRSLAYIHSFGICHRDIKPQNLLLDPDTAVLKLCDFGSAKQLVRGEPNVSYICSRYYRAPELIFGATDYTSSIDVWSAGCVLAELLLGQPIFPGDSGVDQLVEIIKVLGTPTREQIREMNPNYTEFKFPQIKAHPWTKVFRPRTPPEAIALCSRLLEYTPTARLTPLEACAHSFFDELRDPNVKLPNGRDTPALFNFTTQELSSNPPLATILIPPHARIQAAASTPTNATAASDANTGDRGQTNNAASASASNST
Assay: Kinase functional assay (mobility shift), GSK3β
Type: biochemical
Conditions: 10 µM compound, Table S4; read-out: GSK3β (% Inhib.)
The threshold is inclusive: inhibition at 10 µM of exactly 10% counts as 1; values below receive -1.

>>> group("O=c1[nH]c(-c2ccc3[nH]ncc3c2)nc2ccccc12")
1
>>> group("O=c1[nH]c(-c2ccc(N3CCCCC3)cc2)nc2ccccc12")
1
>>> group("Oc1nc(-c2ccc(C(F)(F)F)cc2)nc2c1CSCC2 [Compound 1, XAV939, reference compound]")
-1
>>> group("Nc1ccc(-c2nc3cc(Cl)ccc3c(=O)[nH]2)cc1")
1
>>> group("CCN(CC)c1ccc(-c2nc3ccccc3c(=O)[nH]2)cc1")
-1

---

Molecular target: ARTD15/PARP16 (Homo sapiens)
Sequence (Q8N5Y8 1-322): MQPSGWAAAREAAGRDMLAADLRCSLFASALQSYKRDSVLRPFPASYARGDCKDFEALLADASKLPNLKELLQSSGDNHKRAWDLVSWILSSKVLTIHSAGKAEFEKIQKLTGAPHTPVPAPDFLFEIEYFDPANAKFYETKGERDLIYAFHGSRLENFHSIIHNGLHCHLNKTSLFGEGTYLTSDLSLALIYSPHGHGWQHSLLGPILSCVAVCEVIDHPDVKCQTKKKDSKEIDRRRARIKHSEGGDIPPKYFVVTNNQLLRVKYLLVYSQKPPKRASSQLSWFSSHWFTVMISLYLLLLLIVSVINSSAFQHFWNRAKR
Test: ARTD profiling, ARTD15
pIC50: −log10 of the molar value.
Reported pIC50 values for the following compounds.
Endpoint: pIC50

>>> result("CCN(CC)c1ccc(-c2nc3ccccc3c(=O)[nH]2)cc1")
"< 5.00"
>>> result("CN(CCO)c1ccc(-c2nc3ccccc3c(=O)[nH]2)cc1")
"< 5.00"
>>> result("O=c1[nH]c(-c2ccc(N3CCCCC3)cc2)nc2ccccc12")
"< 5.00"

---

Target: ARTD7/PARP15 (Homo sapiens, UniProt Q460N3)
Sequence (Q460N3 482-678 limits assumed): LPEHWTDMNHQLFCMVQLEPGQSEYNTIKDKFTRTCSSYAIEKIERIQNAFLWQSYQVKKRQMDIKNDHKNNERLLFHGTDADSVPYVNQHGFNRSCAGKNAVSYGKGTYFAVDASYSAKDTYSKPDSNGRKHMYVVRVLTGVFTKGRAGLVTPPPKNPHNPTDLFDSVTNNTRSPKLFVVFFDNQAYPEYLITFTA
Assay: ARTD profiling, ARTD7
pIC50: −log10 of the molar value.
Endpoint: pIC50

>>> result("O=c1[nH]c(-c2ccc(N3CCCCC3)cc2)nc2ccccc12")
"< 5.00"
>>> result("CCN(CC)c1ccc(-c2nc3ccccc3c(=O)[nH]2)cc1")
"< 5.00"
>>> result("CN(CCO)c1ccc(-c2nc3ccccc3c(=O)[nH]2)cc1")
"< 5.00"

---

pIC50 for assorted molecules
Biological target: TNKS2 (Homo sapiens, UniProt Q9H2K2)
Sequence (Q9H2K2 959-1164): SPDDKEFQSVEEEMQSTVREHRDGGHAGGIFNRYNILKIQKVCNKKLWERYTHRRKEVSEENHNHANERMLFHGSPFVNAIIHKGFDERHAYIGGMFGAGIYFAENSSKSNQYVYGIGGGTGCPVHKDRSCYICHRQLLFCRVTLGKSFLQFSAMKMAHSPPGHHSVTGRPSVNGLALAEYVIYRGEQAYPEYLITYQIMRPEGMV
Assay: NAD+ quantification activity assay, TNKS2
Format: biochemical
Settings: TNKS2 IC50, NAD+ 500 nM
pIC50: −log10 of the molar value.
Endpoint: pIC50

>>> quantitative_readout("Nc1ccccc1-c1nc2ccccc2c(=O)[nH]1 [Compound 14]")
6.15
>>> quantitative_readout("O=c1[nH]c(-c2ccc(N3CCCCC3)cc2)nc2ccccc12 [Compound 30]")
7.82
>>> quantitative_readout("O=c1[nH]c(-c2cccc3cnccc23)nc2ccccc12 [Compound 19]")
4.37
>>> quantitative_readout("O=c1[nH]c(-c2ccc(-c3ccccn3)cc2)nc2ccccc12 [Compound 29]")
7.80
>>> quantitative_readout("O=c1[nH]c(-c2ccc(N3CCOCC3)cc2)nc2ccccc12 [Compound 31]")
7.77
>>> quantitative_readout("CCCOc1ccc(-c2nc3ccccc3c(=O)[nH]2)cc1 [Compound 36]")
7.66
>>> quantitative_readout("CC(C)CCOc1ccc(-c2nc3ccccc3c(=O)[nH]2)cc1 [Compound 37]")
7.34
>>> quantitative_readout("O=c1[nH]c(-c2ccccc2Cl)nc2ccccc12 [Compound 25]")
3.61
>>> quantitative_readout("O=C(O)c1ccc2c(=O)[nH]c(-c3ccc(Cl)cc3)nc2c1 [Compound 38]")
4.52
>>> quantitative_readout("O=c1[nH]c(-c2cnc[nH]2)nc2ccccc12 [Compound 21]")
5.19
>>> quantitative_readout("COCCN1CC(=O)C(c2nc3ccccc3c(=O)[nH]2)=C1N [Compound 22]")
4.04
>>> quantitative_readout("CCOc1ccc(-c2nc3ccccc3c(=O)[nH]2)cc1 [Compound 35]")
7.46
>>> quantitative_readout("COc1ccc(-c2nc3cc(Cl)ccc3c(=O)[nH]2)cc1 [Compound 40]")
5.61
>>> quantitative_readout("CCN(CC)c1ccc(-c2nc3ccccc3c(=O)[nH]2)cc1 [Compound 32]")
8.00
>>> quantitative_readout("O=C(O)c1ccc2c(=O)[nH]c(-c3cccc(C(F)(F)F)c3)nc2c1 [Compound 39]")
3.27
>>> quantitative_readout("CC1(c2ccc(-c3nc4ccccc4c(=O)[nH]3)cc2)CNC(=O)N1 (stereo not drawn) [Compound 9]")
8.00
>>> quantitative_readout("CC1(c2ccc(-c3nc4ccccc4c(=O)[nH]3)cc2)NC(=O)NC1=O (stereo not drawn) [Compound 2]")
8.48
>>> quantitative_readout("Oc1nc(-c2ccccc2F)nc2ccccc12 [Compound 26]")
5.32
